- measurement-protocol: physchem
- measurement-parameters: 6 h, pH 7.4
readout-type: Sol. pH7.4 (µM)

Q) Fill in Sol. pH7.4 (µM) for record NS(=O)(=O)c1cccc(Nc2nc(NCc3cccs3)c3ccccc3n2)c1
A) 0.34 µM

Q) Identify the reported Sol. pH7.4 (µM) for the following entry. NS(=O)(=O)c1ccc(Nc2nc(NCc3cccs3)c3ccccc3n2)cc1
A) 0.16 µM

Q) Could you please provide reported Sol. pH7.4 (µM) for c1ccc(Nc2nc(NCc3cccs3)c3ccccc3n2)cc1 ? Thanks!
A) 0.40 µM

Q) Tell me Sol. pH7.4 (µM) reported for CN(C)S(=O)(=O)c1ccc(Nc2nc(NCc3ccccc3)c3ccccc3n2)cc1
A) 0.88 µM

Q) Give recorded Sol. pH7.4 (µM). NC(=O)c1cccc(Nc2nc(NCc3cccs3)c3ccccc3n2)c1
A) 0.56 µM

Q) State its Sol. pH7.4 (µM): c1ccc(CNc2nc(Nc3ccccc3)nc3ccccc23)cc1
A) 0.41 µM

Q) For the compound c1csc(CNc2nc(Nc3ccc(N4CCOCC4)cc3)nc3ccccc23)c1 , give its reported Sol. pH7.4 (µM).
A) 0.48 µM

Q) Using known records, supply Sol. pH7.4 (µM) for O=C(Nc1ccccc1)Nc1ccc(Nc2nc(NCc3cccs3)c3ccccc3n2)cc1
A) 0.22 µM

Q) Report measured Sol. pH7.4 (µM); entry is NS(=O)(=O)c1ccc(Nc2nc(NCc3ccccc3)c3ccccc3n2)cc1
A) 0.03 µM

From: paper PMC6358775
